- systemName: human GR (Homo sapiens)
- Sequence (P04150 1-777): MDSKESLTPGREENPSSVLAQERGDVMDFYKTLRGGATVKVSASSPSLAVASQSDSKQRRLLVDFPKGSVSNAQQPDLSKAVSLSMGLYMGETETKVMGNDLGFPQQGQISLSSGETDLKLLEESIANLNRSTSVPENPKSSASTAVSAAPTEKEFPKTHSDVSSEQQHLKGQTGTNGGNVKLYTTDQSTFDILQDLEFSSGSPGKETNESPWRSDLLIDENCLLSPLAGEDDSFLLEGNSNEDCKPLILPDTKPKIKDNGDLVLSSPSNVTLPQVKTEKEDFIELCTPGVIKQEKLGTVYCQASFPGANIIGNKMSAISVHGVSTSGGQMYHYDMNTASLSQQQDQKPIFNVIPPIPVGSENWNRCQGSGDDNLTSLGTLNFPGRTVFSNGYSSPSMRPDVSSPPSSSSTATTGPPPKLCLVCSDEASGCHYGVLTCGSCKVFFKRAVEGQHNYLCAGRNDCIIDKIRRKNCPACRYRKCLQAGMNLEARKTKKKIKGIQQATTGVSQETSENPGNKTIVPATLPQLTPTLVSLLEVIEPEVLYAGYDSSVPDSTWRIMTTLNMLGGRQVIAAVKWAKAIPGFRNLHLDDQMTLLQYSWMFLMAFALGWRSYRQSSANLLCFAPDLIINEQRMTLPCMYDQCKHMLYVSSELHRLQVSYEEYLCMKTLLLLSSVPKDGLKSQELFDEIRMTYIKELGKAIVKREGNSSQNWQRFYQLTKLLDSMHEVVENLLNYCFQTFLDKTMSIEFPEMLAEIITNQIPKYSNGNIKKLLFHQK
- experimentSummary: Trans-Activation Modulation of Glucocorticoid Receptor (GRAMMER), MMTV-LUC reporter gene
- Format: cell-based
- Design: endogenous in cells
- experimentalConditions: A549; read-out: Transactivation A549 Cells GRAMMER Emax (%)
reportedProperty: Emax (%)

C[C@]12Cc3cnn(-c4ccc(F)cc4)c3C=C1CC[C@@]2(O)CCc1ccccc1C(=O)N1CCCCC1: 54
C[C@]12Cc3cnn(-c4ccc(F)cc4)c3C=C1CC[C@@]2(O)CCc1ccccc1C(=O)N1CCCC1: 59
C[C@]12Cc3cnn(-c4ccc(F)cc4)c3C=C1CC[C@@]2(O)CCc1cccc(F)c1CNS(=O)(=O)CC(F)(F)F: 13

[P] C[C@]12Cc3cnn(-c4ccc(F)cc4)c3C=C1CC[C@@]2(O)CCc1ccccc1C(=O)N1CCC1
[Q] CC1(NC(=O)c2ccccc2CC[C@]2(O)CCC3=Cc4c(cnn4-c4ccccc4)C[C@@]32C)CC1
Request: Recorded Emax values differ for P and Q ; which one is higher? # respond with the chosen item's label
Result: P

Entry source: patent US8119681B2
